Biological target: CRF1R
Assay: cell-based or functional assay
ATTRIBUTE MEASURED: CRF1R EC50 (nM)

• ZGPPISIDLPFQLLRKMIEIEKQEKEKQQATTNARLLDTV (C-terminal amide) [SEQ ID NO 20] = 906
• ZGPPISIDLPQHLLRKMIEIEKQEKEKQQAANNRLLLDTI (C-terminal amide) [SEQ ID NO 207] = 466
